The values you see were collected from the supplement of paper PMC12350171.

# System: P. vulgatus WT;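 note: active when median AUC fell below 0.1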
# experiment-notes: growth AUC normalised to DMSO control (median) (fraction of control); higher = less growth inhibition, active = hit call of the paper
# experimental-parameters: 20 µM
Where a name gives a salt, the structure may show the parent alone.
measured-property: growth AUC normalised to DMSO control
Answers are plain numbers.

Example molecules with recorded growth AUC normalised to DMSO control:
- molecule: "CC(C)(C)C(=O)C(Oc1ccc(Cl)cc1)n1ccnc1 (centres undefined)"
  target-desc: "P. vulgatus WT"
  growth AUC normalised to DMSO control: 0.984
- molecule: "CC1(C)O[C@@H]2C[C@H]3[C@@H]4CCC5=CC(=O)CC[C@]5(C)[C@@]4(F)[C@@H](O)C[C@]3(C)[C@]2(C(=O)CCl)O1 [Halcinonide]"
  target-desc: "P. vulgatus WT"
  growth AUC normalised to DMSO control: 1
- molecule: "C[C@H](CCC(=O)O)[C@H]1CC[C@H]2[C@@H]3[C@@H](O)C[C@@H]4C[C@H](O)CC[C@]4(C)[C@H]3CC[C@]12C"
  target-desc: "P. vulgatus WT"
  growth AUC normalised to DMSO control: 1.02

Please report the measured growth AUC normalised to DMSO control for Cc1c(N(C)CS(=O)(=O)O)c(=O)n(-c2ccccc2)n1C [Dipyrone sodium salt]
0.996
